- target entity: CK1α (Homo sapiens)
- Construct: HEK293 clonal lines with CRISPR KI HiBiT tag on CSNK1A1
- Sequence (P48729 whole entry): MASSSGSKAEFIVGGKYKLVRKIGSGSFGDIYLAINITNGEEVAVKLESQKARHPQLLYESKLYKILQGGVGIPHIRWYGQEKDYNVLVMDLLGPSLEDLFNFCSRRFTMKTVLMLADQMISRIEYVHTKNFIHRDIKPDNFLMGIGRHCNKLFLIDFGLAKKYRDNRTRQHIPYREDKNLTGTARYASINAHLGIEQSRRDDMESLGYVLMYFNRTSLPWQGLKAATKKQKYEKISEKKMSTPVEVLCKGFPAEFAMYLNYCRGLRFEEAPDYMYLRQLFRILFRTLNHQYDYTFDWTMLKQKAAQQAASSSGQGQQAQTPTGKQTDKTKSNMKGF
- Sequence (Q96SW2 whole entry, further chain): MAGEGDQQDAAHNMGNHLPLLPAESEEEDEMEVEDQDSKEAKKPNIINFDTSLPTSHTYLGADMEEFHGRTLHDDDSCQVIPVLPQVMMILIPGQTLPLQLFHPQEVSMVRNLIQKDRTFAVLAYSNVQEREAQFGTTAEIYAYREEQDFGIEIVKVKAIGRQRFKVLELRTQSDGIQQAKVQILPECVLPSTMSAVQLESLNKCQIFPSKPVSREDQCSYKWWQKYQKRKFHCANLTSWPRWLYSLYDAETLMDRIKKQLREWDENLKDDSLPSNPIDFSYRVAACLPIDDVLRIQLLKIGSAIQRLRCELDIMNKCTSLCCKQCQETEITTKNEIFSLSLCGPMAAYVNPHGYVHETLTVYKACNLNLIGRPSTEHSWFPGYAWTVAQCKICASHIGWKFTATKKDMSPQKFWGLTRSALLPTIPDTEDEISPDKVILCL
- Sequence (Q16531 2-1140 partner limits assumed): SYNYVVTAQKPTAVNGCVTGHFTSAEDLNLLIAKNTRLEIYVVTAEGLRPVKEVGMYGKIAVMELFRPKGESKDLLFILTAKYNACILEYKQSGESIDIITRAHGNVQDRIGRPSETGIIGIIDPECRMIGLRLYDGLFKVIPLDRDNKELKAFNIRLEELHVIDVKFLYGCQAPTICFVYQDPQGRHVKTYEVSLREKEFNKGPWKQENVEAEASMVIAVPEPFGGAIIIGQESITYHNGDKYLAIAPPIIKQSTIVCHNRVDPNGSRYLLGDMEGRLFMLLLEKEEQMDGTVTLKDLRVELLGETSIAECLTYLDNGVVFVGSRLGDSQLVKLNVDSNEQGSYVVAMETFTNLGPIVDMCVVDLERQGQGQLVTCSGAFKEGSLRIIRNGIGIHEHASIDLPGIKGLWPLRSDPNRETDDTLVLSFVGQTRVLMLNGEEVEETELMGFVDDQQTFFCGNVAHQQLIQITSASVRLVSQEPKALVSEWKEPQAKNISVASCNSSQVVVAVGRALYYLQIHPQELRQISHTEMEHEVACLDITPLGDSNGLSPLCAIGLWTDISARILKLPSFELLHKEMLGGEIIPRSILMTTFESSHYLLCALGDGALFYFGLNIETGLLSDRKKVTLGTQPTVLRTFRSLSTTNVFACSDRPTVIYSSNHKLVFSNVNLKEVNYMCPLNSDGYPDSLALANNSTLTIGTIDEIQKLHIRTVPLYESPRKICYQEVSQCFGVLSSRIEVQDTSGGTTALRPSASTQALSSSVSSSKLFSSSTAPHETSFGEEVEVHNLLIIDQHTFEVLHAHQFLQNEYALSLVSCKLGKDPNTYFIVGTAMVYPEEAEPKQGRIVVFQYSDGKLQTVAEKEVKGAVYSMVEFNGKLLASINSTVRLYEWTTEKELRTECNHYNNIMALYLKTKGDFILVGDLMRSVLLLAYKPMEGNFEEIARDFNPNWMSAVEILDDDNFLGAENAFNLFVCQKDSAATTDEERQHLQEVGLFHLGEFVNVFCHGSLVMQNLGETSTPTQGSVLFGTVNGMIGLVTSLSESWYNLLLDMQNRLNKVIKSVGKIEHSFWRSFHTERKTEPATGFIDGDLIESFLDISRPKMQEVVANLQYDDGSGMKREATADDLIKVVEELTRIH
- assay summary: CK1α NanoBit Assay (HiBiT-tagged CSNK1A1, HEK293 clonal lines)
- Type: cell-based
- measurement context: HEK293 HiBiT-CSNK1A1/LgBiT cells, 24 h incubation
value type: DC50

Exam item: Requested field: DC50. Item: CC(C)c1cccc2c1N(C(=O)Nc1ccc3c(c1)CN(C1CCC(=O)NC1=O)C3=O)CCC2 (centres unmarked)
Marked response: 0.1 to 1 µM

Exam item: Requested field: DC50. Item: O=C1CCC(N2Cc3cc(NC(=O)N4CCc5ccccc54)ccc3C2=O)C(=O)N1 (centres unmarked)
Marked response: < 0.1 µM

Exam item: Requested field: DC50. Item: O=C1CCC(N2Cc3cc(NC(=O)N4CCCc5c(F)cccc54)ccc3C2=O)C(=O)N1 (centres unmarked)
Marked response: 0.1 to 1 µM

Exam item: Requested field: DC50. Item: CCc1cccc2c1N(C(=O)Nc1ccc3c(c1)CN(C1CCC(=O)NC1=O)C3=O)CC2 (centres unmarked)
Marked response: < 0.1 µM

Exam item: Requested field: DC50. Item: O=C1CCC(N2Cc3cc(NC(=O)N4CCCCC4C(F)(F)F)ccc3C2=O)C(=O)N1 (centres unmarked)
Marked response: < 0.1 µM

Exam item: Requested field: DC50. Item: CC1(C)CN(C(=O)Nc2ccc3c(c2)CN(C2CCC(=O)NC2=O)C3=O)c2ccccc21 (centres unmarked)
Marked response: < 0.1 µM

Exam item: Requested field: DC50. Item: O=C1CCC(N2Cc3cc(NC(=O)N4CCc5c(F)cccc54)ccc3C2=O)C(=O)N1 (centres unmarked)
Marked response: < 0.1 µM

Exam item: Requested field: DC50. Item: O=C1CCC(N2Cc3cc(NC(=O)N4CCCc5cc(F)ccc54)ccc3C2=O)C(=O)N1 (centres unmarked)
Marked response: < 0.1 µM
